Test: enzyme activity assay at 23° C. with purified enzyme
Type: biochemical
Conditions: purified enzyme, wild-type set at 100%
measure: maximum activity as a percentage of the wild-type enzyme's activity, Haloxyfop (%)
Respond with the bare value in %.

Asked: If you can, please state the reported maximum activity as a percentage of the wild-type enzyme's activity, Haloxyfop value of MON-HT55: engineered oxygenase protein, amino acid sequence SEQ ID NO:11 (protein) MHAALSPLSQRFERIAVQPLTGVLGAEITGVDLREPLDDSTWNEILDAFHTYQVIYFPGQAITNEQHIAFSRRFGPVDPVPLLKSIEGYPEVQMIRREANESGRVIGENWHTDSTFLDAPPAAVVMYAKEIPPYGGDTLFTSMYTAWETLSPTMQATIEGLNVVHSATRVFGSLYQAQNRRFSNTSVKVMDVDAGDRETVHPLVVTHPETGRKGLYVNQVYCQRIEGMSEKESEPLLSFLFAHATKPEFTCRVRWQEGDVLVWDNLCTQHYAVPDYAGKFRYLTRTTVGGVRPAR .
Given back: 58

Asked: Find the recorded maximum activity as a percentage of the wild-type enzyme's activity, Haloxyfop belonging to MON-HT9: engineered oxygenase protein, amino acid sequence SEQ ID NO:40 (protein) MHAALTPLTNKYRFIDVQPLTGVLGAEITGVDLREPLDDSTWNEILDAFHTYQVIYFPAQQITNEQHISFSRRFGPVDPVPLLKSIEGYPEVQMIRREANESGRILGDDWHTDSTFLDAPPAAVVMRAIEVPEYGGDTGFLSMYSAWDTLSDTMKATIEGLNVVHSATRVFGSLYQAQNWRFSNTSVKVMDVDAGDRETVHPLVVSHPVTGRRALYCNQVYCQRIEGMTDAESKCLLQFLYEHATKFDFTCRVRWKKDQVLVWDNLCTMHRAVPDYAGKFRYLTRTTVAGDRPAR and report it.
Given back: 91

Asked: Look up maximum activity as a percentage of the wild-type enzyme's activity, Haloxyfop: MON-HT5: engineered oxygenase protein, amino acid sequence SEQ ID NO:28 (protein) MHAALTPLTNKYRFIDVQPLTGVLGAEITGVDLREPLDDSTWNEILDAFHTYQVIYFPGQAITNEQHIAFSRRFGPVDPVPLLKSIEGYPEVQMIRREANESGRVIGDDWHTDSTFLDAPPAAVVMRAIEVPEYGGDTGFLSMYSAWETLSPTMQATIEGLNVVHSATKVFGSLYQATNWRFSNTSVKVMDVDAGDRETVHPLVVTHPVTGRRALYCNQVYCQKIQGMTDAESKSLLQFLYEHATKFDFTCRVRWKKDQVLVWDNLCTMHRAVPDYAGKFRYLTRTTVAGDKPSR
Given back: 100

Asked: Recorded maximum activity as a percentage of the wild-type enzyme's activity, Haloxyfop of MON-HT4: engineered oxygenase protein, amino acid sequence SEQ ID NO:25 (protein) MHAALTPLTNKYRFIDVQPLTGVLGAEITGVDLREPLDDSTWNEILDAFHTYQVIYFPGQAITNEQHIAFSRRFGPVDPVPLLKSIEGYPEVQMIRREANESGRVIGDDWHTDSTFLDAPPAAVVMYAREVPPYGGDTGFLSMYTAWETLSPTMQATIEGLNVVHSATRVFGSLYQAQNRRYSNTSVKVMDVDAGDRETVHPLVVSHPVTGRRALYCNQVYCQRIEGMTDAESKSLLQFLYEHATKFDFTCRVRWKKDQVLVWDNLCTMHRAVPDYAGKFRYLTRTTVAGDKPSR , please.
Given back: 49

Asked: Entry under review: MON-HT6: engineered oxygenase protein, amino acid sequence SEQ ID NO:31 (protein) MHAALSPLSQKYRFIDVQPLTGVLGAEITGVTLREPLDDNTWNEILDAFHTYQVIYFPGQAITNEQHIAFSRRFGPVDPVPLLKSIEGYPEVQMIRREANESGRVIGDDWHTDSTFLDAPPAAVVMYAREVPPYGGDTGFLSMYSAWDTLSDTMKATIEGLNVVHSATRVFGSLYQAQNRRFSNTSVKVMDVDAGDRETVHPLVVSHPVTGRRALYCNQVYCQRIEGMTDAESKPLLQFLYEHATRFDFTCRVRWKKDQVLVWDNLCTMHRAVPDYAGKFRYLTRTTVAGDKPSR . Reported maximum activity as a percentage of the wild-type enzyme's activity, Haloxyfop?
Given back: 75

Asked: Endpoint output: maximum activity as a percentage of the wild-type enzyme's activity, Haloxyfop of MON-HT3: engineered oxygenase protein, amino acid sequence SEQ ID NO:22 (protein) MHAALSPLSQRFERIAVQPLTGVLGAEITGVDLREPLDDSTWNEILDAFHTYQVIYFPGQAITNEQHIAFSRRFGPVDPVPLLKSIEGYPEVQMIRREANESGRVIGDDWHTDSTFLDAPPAAVVMYAKEVPPYGGDTLFASMYTAWETLSPTMQATIEGLNVVHSATRVFGSLYQAQNRRFSNTSVKVMDVDAGDRETVHPLVVTHPETGRKGLYVNQVYCQRIEGMSEKESEPLLSFLFAHATKPEFTCRVRWQEGQVLVWDNLCTQHFAVPDYAGKFRYLTRTTVGGVRPAR . Value?
Given back: 67

Asked: Look at this molecule and give its reported maximum activity as a percentage of the wild-type enzyme's activity, Haloxyfop. MON-HT8: engineered oxygenase protein, amino acid sequence SEQ ID NO:37 (protein) MHAALTPLTNKYRFIDVQPLTGVLGAEITGVDLREPLDDSTWNEILDAFHTYQVIYFPGQAITNEQHIAFSRRFGPVDPVPILKSIEGYPEVQMIRREANESGRVIGDDWHTDSTFLDAPPAAVVMRAIEVPEYGGDTGFLSMYSAWETLSPTMQATIEGLNVVHSATKVFGSLYQATNWRFSNTSVKVMDVDAGDRETVHPLVVTHPVTGRRALYCNQVYCQKIQGMTDAESKSLLQFLYEHATKFDFTCRVRWKKDQVLVWDNLCTMHRSVPDYGNAFRYLTRTTVAGDKPSR
Given back: 99
